- Assayed system: human recombinant PDE5 (Homo sapiens, UniProt O76074)
- Experiment notes: cGMP-PDE one-step inhibition assay, human recombinant PDE5
- Measurement parameters: 0.15 μM 8-[H3]-cGMP, 30 min incubation
- Description: The compounds of structural formula (I) were tested for an ability to inhibit PDE5. The ability of a compound to inhibit PDE5 activity is related to the IC50 value for the compound, i.e., the concentration of inhibitor required for 50% inhibition of enzyme activity. The IC50 value for compounds of structural formula (I) were determined using recombinant human PDE5. […] cGMP-PDE activity of compounds of the present invention was measured using a one-step assay adapted from Wells et al., Biochim. […]
pIC50: −log10 of the molar value.
Assay readout: pIC50

Field: example entries. Status: answers known.
COCCCN1CC(=O)N2[C@H](c3ccc4c(c3)OCO4)c3[nH]c4ccccc4c3C[C@@H]2C1=O | 8.00
O=C(O)CCN1CC(=O)N2[C@H](c3ccc4c(c3)OCO4)c3[nH]c4ccccc4c3C[C@@H]2C1=O [Example 36] | 7.30
Nc1ccc(CCN2CC(=O)N3[C@H](c4ccc5c(c4)OCO5)c4[nH]c5ccccc5c4C[C@@H]3C2=O)cc1 | 7.40
O=C(CN1CC(=O)N2[C@H](c3ccc4c(c3)OCO4)c3[nH]c4ccccc4c3C[C@@H]2C1=O)NCc1ccccc1 | 7.70
CC1C(=O)N2[C@H](c3ccc4c(c3)OCO4)c3[nH]c4ccccc4c3C[C@@H]2C(=O)N1CCN(C)C (stereo partly drawn) | 6.89
N#Cc1ccc(CN2CC(=O)N3[C@H](c4ccc5c(c4)OCO5)c4[nH]c5ccccc5c4C[C@@H]3C2=O)cc1 | 7.15
O=C1[C@H]2Cc3c([nH]c4ccccc34)[C@@H](c3ccc4c(c3)OCO4)N2C(=O)CN1Cc1ccc(NS(=O)(=O)C(F)(F)F)cc1 | 8.29
O=C1C2Cc3c([nH]c4ccccc34)C(c3ccc4c(c3)OCO4)N2C(=O)CN1CCn1cncn1 (stereo not drawn) | 7.52

[A] CCOC(=O)CCN1CC(=O)N2[C@H](c3ccc4c(c3)OCO4)c3[nH]c4ccccc4c3C[C@@H]2C1=O
[B] O=C(O)c1ccc(CN2CC(=O)N3[C@H](c4ccc5c(c4)OCO5)c4[nH]c5ccccc5c4C[C@@H]3C2=O)cc1
Prompt: Please let me know which one, A or B , has a lower measured pIC50 value. Refer to your chosen entry by its label in the reply.
Completion: A
(A: 8.02, B: 8.37)

[A] O=C(CN1CC(=O)N2[C@H](c3ccc4c(c3)OCO4)c3[nH]c4ccccc4c3C[C@@H]2C1=O)OCc1ccccc1
[B] CC(C)(C)OC(=O)CCN1CC(=O)N2[C@H](c3ccc4c(c3)OCO4)c3[nH]c4ccccc4c3C[C@@H]2C1=O
[C] O=C1[C@H]2Cc3c([nH]c4ccccc34)[C@@H](c3ccc4c(c3)OCO4)N2C(=O)CN1CCc1cnc[nH]1
[D] CN(C)CCOc1ccc(CN2CC(=O)N3[C@H](c4ccc5c(c4)OCO5)c4[nH]c5ccccc5c4C[C@@H]3C2=O)cc1
Prompt: Kindly order the items shown according to pIC50, from the highest value down. Lab note: record answer as labels in requested order.
Completion: B, C, A, D
(B: 8.00, C: 7.70, A: 7.40, D: 6.54)

[I] CN1CCN(CCN2CC(=O)N3[C@H](c4ccc5c(c4)OCO5)c4[nH]c5ccccc5c4C[C@@H]3C2=O)CC1
[II] CCOCCCN1CC(=O)N2[C@H](c3ccc4c(c3)OCO4)c3[nH]c4ccccc4c3C[C@@H]2C1=O
[III] CN1CCN(NC(=O)CN2CC(=O)N3[C@H](c4ccc5c(c4)OCO5)c4[nH]c5ccccc5c4C[C@@H]3C2=O)CC1
Prompt: Order the records so the highest pIC50 appears first and the lowest last. Answer by listing the labels in the requested order.
Completion: II, I, III

[I] COC(=O)CN1CC(=O)N2[C@H](c3ccc4c(c3)OCO4)c3[nH]c4ccccc4c3C[C@@H]2C1=O
[II] CC(C)(C)OC(=O)CN1CC(=O)N2[C@H](c3ccc4c(c3)OCO4)c3[nH]c4ccccc4c3C[C@@H]2C1=O
[III] CCCCN(C)C(=O)CCCN1CC(=O)N2[C@H](c3ccc4c(c3)OCO4)c3[nH]c4ccccc4c3C[C@@H]2C1=O
[IV] O=C1CCCN1CCCN1CC(=O)N2[C@H](c3ccc4c(c3)OCO4)c3[nH]c4ccccc4c3C[C@@H]2C1=O
Prompt: Falling order of pIC50, please. Put the labels in the order asked and list them.
Completion: IV, III, I, II

---

- Assayed system: human recombinant PDE5 (Homo sapiens)
- Experiment notes: cGMP-PDE one-step inhibition assay, human recombinant PDE5
- Measurement parameters: 0.15 μM 8-[H3]-cGMP, 30 min incubation
pIC50: −log10 of the molar value.
Assay readout: pIC50

[I] NS(=O)(=O)c1ccc(CN2CC(=O)N3[C@H](c4ccc5c(c4)OCO5)c4[nH]c5ccccc5c4C[C@@H]3C2=O)cc1
[II] N#CCN1CC(=O)N2[C@H](c3ccc4c(c3)OCO4)c3[nH]c4ccccc4c3C[C@@H]2C1=O
[III] NS(=O)(=O)c1ccc(CCN2CC(=O)N3[C@H](c4ccc5c(c4)OCO5)c4[nH]c5ccccc5c4C[C@@H]3C2=O)cc1 [Example 67]
Prompt: In this exercise, place the 3 molecules in ascending sequence of their recorded pIC50. Answer by listing the labels in the requested order.
Completion: I, II, III
(I: 7.70, II: 8.00, III: 8.21)

[I] Cn1cnc2cc(CN3CC(=O)N4[C@H](c5ccc6c(c5)OCO6)c5[nH]c6ccccc6c5C[C@@H]4C3=O)ccc21
[II] CC(=O)NCCN1CC(=O)N2[C@H](c3ccc4c(c3)OCO4)c3[nH]c4ccccc4c3C[C@@H]2C1=O
Prompt: Form: Entry with minimum pIC50 (choose one): I / II To answer, give the label that identifies your chosen option.
Completion: I
(I: 7.70, II: 8.00)
